# target under test: cyclophilin (Bos taurus)
# Construct: from tissue; host or cells: purified from tissue cytosol
# Sequence (P62935 whole entry): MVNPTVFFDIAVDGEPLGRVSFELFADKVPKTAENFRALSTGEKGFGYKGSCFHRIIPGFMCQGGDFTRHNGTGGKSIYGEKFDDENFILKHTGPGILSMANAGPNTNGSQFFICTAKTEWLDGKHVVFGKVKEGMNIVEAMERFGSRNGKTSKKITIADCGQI
# protocol details: Cyclophilin affinity: enhancement of the intrinsic tryptophan fluorescence of cyclophilin by CsA or analogs
# Assay type: binding
# run conditions: ligand 1.0 ug/ml, 5 ug/ml cyclophilin, pH 7.2
Where a SMILES comes first, the peptide text is derived from it. [ ]: non-standard residue; d: D form. NMe(dihydroBmt) = CCCC[C@@H](C)[C@@H](O)[C@H](NC)C(=O)O; NMeL = CN[C@@H](CC(C)C)C(=O)O; NMeV = CN[C@H](C(=O)O)C(C)C; Sar = CNCC(=O)O
measurement kind: Cyclophilin affinity 1.0 ug/ml

| molecule | measurement |
| --- | --- |
| C/C=C/C[C@@H](C)[C@@H](O)[C@H]1C(=O)N[C@@H](C(C)C)C(=O)N(C)CC(=O)N(C)[C@@H](CC(C)C)C(=O)N[C@@H](C(C)C)C(=O)N(C)[C@@H](CC(C)C)C(=O)N[C@@H](C)C(=O)N[C@H](C)C(=O)N(C)[C@@H](CC(C)C)C(=O)N(C)[C@@H](CC(C)C)C(=O)N(C)[C@@H](C(C)C)C(=O)N1C | 0.69 |
| C/C=C/C[C@@H](C)[C@@H](O)[C@H]1C(=O)N[C@@H](CCC)C(=O)N(C)CC(=O)N(C)[C@@H](CC(C)C)C(=O)N[C@@H](C(C)C)C(=O)N(C)[C@@H](CC(C)C)C(=O)N[C@@H](C)C(=O)N[C@H](C)C(=O)N(C)[C@@H](CC(C)C)C(=O)N(C)[C@@H](CC(C)C)C(=O)N(C)[C@@H](C(C)C)C(=O)N1C | 0.87 |
| CCCC[C@@H](C)[C@@H](O)[C@H]1C(=O)N[C@@H]([C@@H](C)O)C(=O)N(C)CC(=O)N(C)[C@@H](CC(C)C)C(=O)N[C@@H](C(C)C)C(=O)N(C)[C@@H](CC(C)C)C(=O)N[C@@H](C)C(=O)N[C@H](C)C(=O)N(C)[C@@H](CC(C)C)C(=O)N(C)[C@@H](CC(C)C)C(=O)N(C)[C@@H](C(C)C)C(=O)N1C [Dihydro-CsC] (cyclo(A[dA][NMeL][NMeL][NMeV][NMe(dihydroBmt)]T[Sar][NMeL]V[NMeL])) | 0.70 |

----------
# protocol details: Retention of analog relative to CsA on a uBondapak phenyl column as a measure of hydrophobicity
# Type: physicochemical
# run conditions: isocratic 60% acetonitrile, 1 ml/min
Where a SMILES comes first, the peptide text is derived from it. [ ]: non-standard residue; d: D form. NMe(dihydroBmt) = CCCC[C@@H](C)[C@@H](O)[C@H](NC)C(=O)O; NMeL = CN[C@@H](CC(C)C)C(=O)O; NMeV = CN[C@H](C(=O)O)C(C)C; Sar = CNCC(=O)O
measurement kind: Retention time of analog relative to CsA

| compound | measurement |
| --- | --- |
| C/C=C/C[C@@H](C)[C@@H](O)[C@H]1C(=O)N[C@@H](C(C)C)C(=O)N(C)CC(=O)N(C)[C@@H](CC(C)C)C(=O)N[C@@H](C(C)C)C(=O)N(C)[C@@H](CC(C)C)C(=O)N[C@@H](C)C(=O)N[C@H](C)C(=O)N(C)[C@@H](CC(C)C)C(=O)N(C)[C@@H](CC(C)C)C(=O)N(C)[C@@H](C(C)C)C(=O)N1C [CsD] | 1.20 |
| C/C=C/C[C@@H](C)[C@@H](O)[C@H]1C(=O)N[C@@H](CCC)C(=O)N(C)CC(=O)N(C)[C@@H](CC(C)C)C(=O)N[C@@H](C(C)C)C(=O)N(C)[C@@H](CC(C)C)C(=O)N[C@@H](C)C(=O)N[C@H](C)C(=O)N(C)[C@@H](CC(C)C)C(=O)N(C)[C@@H](CC(C)C)C(=O)N(C)[C@@H](C(C)C)C(=O)N1C [CsG] | 1.14 |
| CCCC[C@@H](C)[C@@H](O)[C@H]1C(=O)N[C@@H]([C@@H](C)O)C(=O)N(C)CC(=O)N(C)[C@@H](CC(C)C)C(=O)N[C@@H](C(C)C)C(=O)N(C)[C@@H](CC(C)C)C(=O)N[C@@H](C)C(=O)N[C@H](C)C(=O)N(C)[C@@H](CC(C)C)C(=O)N(C)[C@@H](CC(C)C)C(=O)N(C)[C@@H](C(C)C)C(=O)N1C [Dihydro-CsC] (cyclo(A[dA][NMeL][NMeL][NMeV][NMe(dihydroBmt)]T[Sar][NMeL]V[NMeL])) | 0.79 |
| C/C=C/C[C@@H](C)[C@@H](OC(C)=O)[C@H]1C(=O)N[C@@H](CC)C(=O)N(C)CC(=O)N(C)[C@@H](CC(C)C)C(=O)N[C@@H](C(C)C)C(=O)N(C)[C@@H](CC(C)C)C(=O)N[C@@H](C)C(=O)N[C@H](C)C(=O)N(C)[C@@H](CC(C)C)C(=O)N(C)[C@@H](CC(C)C)C(=O)N(C)[C@@H](C(C)C)C(=O)N1C [O-Acetyl-CsA] | 1.69 |
| CCCC[C@@H](C)[C@@H](O)[C@H]1C(=O)N[C@@H](C(C)C)C(=O)N(C)CC(=O)N(C)[C@@H](CC(C)C)C(=O)N[C@@H](C(C)C)C(=O)N(C)[C@@H](CC(C)C)C(=O)N[C@@H](C)C(=O)N[C@H](C)C(=O)N(C)[C@@H](CC(C)C)C(=O)N(C)[C@@H](CC(C)C)C(=O)N(C)[C@@H](C(C)C)C(=O)N1C [Dihydro-CsD] (cyclo(A[dA][NMeL][NMeL][NMeV][NMe(dihydroBmt)]V[Sar][NMeL]V[NMeL])) | 1.28 |
| C/C=C/C[C@@H](C)[C@@H](O)[C@H]1C(=O)N[C@@H]([C@@H](C)O)C(=O)N(C)CC(=O)N(C)[C@@H](CC(C)C)C(=O)N[C@@H](C(C)C)C(=O)N(C)[C@@H](CC(C)C)C(=O)N[C@@H](C)C(=O)N[C@H](C)C(=O)N(C)[C@@H](CC(C)C)C(=O)N(C)[C@@H](CC(C)C)C(=O)N(C)[C@@H](C(C)C)C(=O)N1C [CsC, cyclosporin C] | 0.70 |
